species: Homo sapiens; test: Selectivity for human dopamine D4.4 receptor over human dopamine D2S receptor
RECORDED METRIC: Ratio Ki

Some entries whose results are on file:
FCCOc1ccc(N2CCN(Cc3cc4ccccn4n3)CC2)cc1    3850
Fc1cccc(N2CCN(Cc3cc4ccccn4n3)CC2)n1    71
FCCOc1ccc(N2CCN(Cc3cnn4ccccc34)CC2)cc1    2820

[a] FCCOc1ccccc1N1CCN(Cc2cc3ccccn3n2)CC1
[b] Fc1cccc(N2CCN(Cc3cnn4ccccc34)CC2)n1
[c] Clc1ccc(N2CCN(Cc3cc4ccccn4n3)CC2)cc1
Input: Please list these in order of increasing Ratio Ki. Thank you! Answer by naming the labels in the order asked.
Output: b, a, c

---

assay: Agonist activity at rat dopamine D4.2 receptor expressed in CHO10001A cells assessed as incorporation of [3H]thymidine; format: functional, cell-based
RECORDED METRIC: EC50 (nM)

FCCOc1ccccc1N1CCN(Cc2cnn3ccccc23)CC1    1
FCCOc1ccccc1N1CCN(Cc2cc3ccccn3n2)CC1    0.8
CCCN1CCC[C@@H]2Cc3n[nH]cc3C[C@H]21 [QUINPIROLE]    7.1

[1] FCCOc1ccc(N2CCN(Cc3cnn4ccccc34)CC2)cc1
[2] FCCOc1ccc(N2CCN(Cc3cc4ccccn4n3)CC2)cc1
Input: Could you determine which record has the numerically smaller EC50? Candidates: 1 and 2 Write down the label attached to your selection.
Output: 2

---

test: Displacement of [3H]8-OH-DPAT from 5HT1A receptor in pig cortical membranes; format: cell membranes, Sus scrofa
pKi: −log10 of the molar value.
RECORDED METRIC: pKi

[A] Clc1ccc(N2CCN(Cc3cc4ccccn4n3)CC2)cc1
[B] Oc1ccc(N2CCN(Cc3cnn4ccccc34)CC2)cc1
[C] Brc1cccc(N2CCN(Cc3cc4ccccn4n3)CC2)n1
[D] FCCOc1ccccc1N1CCN(Cc2cc3ccccn3n2)CC1
Input: Rank by decreasing pKi the items listed here. Please list each label once, in the requested order.
Output: C, A, D, B

---

species: Homo sapiens; assay: Selectivity for human dopamine D4.4 receptor over human dopamine D3 receptor
RECORDED METRIC: Ratio Ki

Clc1ccc(N2CCN(Cc3cc4ccccn4n3)CC2)cc1    2410

[P] FCCOc1ccc(N2CCN(Cc3cnn4ccccc34)CC2)cc1
[Q] FCCOc1ccccc1N1CCN(Cc2cc3ccccn3n2)CC1
[R] Fc1cccc(N2CCN(Cc3cc4ccccn4n3)CC2)n1
[S] FCCOc1ccc(N2CCN(Cc3cc4ccccn4n3)CC2)cc1
Input: With regard to Ratio Ki, arrange the entries in ascending order, please. Kindly provide the labels arranged according to the requested ordering.
Output: R, P, Q, S
(R: 142, P: 311, Q: 723, S: 1150)

---

biological target: D(1A) dopamine receptor (Sus scrofa, UniProt P50130); test: Displacement of [3H][…] from dopamine D1 receptor in pig striatal membrane
Sequence (P50130 whole entry): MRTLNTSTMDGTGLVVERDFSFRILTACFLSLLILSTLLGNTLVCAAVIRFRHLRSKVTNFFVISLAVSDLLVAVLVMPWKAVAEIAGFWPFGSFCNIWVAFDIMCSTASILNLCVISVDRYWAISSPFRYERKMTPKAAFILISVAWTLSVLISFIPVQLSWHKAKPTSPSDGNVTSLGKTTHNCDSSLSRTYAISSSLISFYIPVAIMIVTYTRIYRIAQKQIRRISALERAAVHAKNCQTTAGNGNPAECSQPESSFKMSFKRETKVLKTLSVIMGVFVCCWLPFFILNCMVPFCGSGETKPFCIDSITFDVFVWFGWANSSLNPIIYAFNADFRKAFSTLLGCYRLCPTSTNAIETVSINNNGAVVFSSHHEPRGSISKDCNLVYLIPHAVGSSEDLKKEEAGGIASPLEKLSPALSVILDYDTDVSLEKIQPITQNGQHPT
pKi: −log10 of the molar value.
RECORDED METRIC: pKi

Brc1cccc(N2CCN(Cc3cnn4ccccc34)CC2)n1    5.41
Oc1ccc(N2CCN(Cc3cnn4ccccc34)CC2)cc1    5.00
FCCOc1ccccc1N1CCN(Cc2cc3ccccn3n2)CC1    5.32

[P] Fc1cccc(N2CCN(Cc3cnn4ccccc34)CC2)n1
[Q] Fc1cccc(N2CCN(Cc3cc4ccccn4n3)CC2)n1
[R] Oc1ccccc1N1CCN(Cc2cnn3ccccc23)CC1
Input: Rank order required: pKi, descending. Dear reader, please state the labels in the requested order.
Output: R, P, Q
(R: 5.55, P: 5.14, Q: 4.52)

[A] FCCOc1ccc(N2CCN(Cc3cnn4ccccc34)CC2)cc1
[B] Brc1cccc(N2CCN(Cc3cc4ccccn4n3)CC2)n1
Input: Of A and B , which one carries the higher reported pKi? Please identify the chosen entry by its label.
Output: B
(B: 4.74, A: 4.48)

[1] FCCOc1ccc(N2CCN(Cc3cc4ccccn4n3)CC2)cc1
[2] FCCOc1ccccc1N1CCN(Cc2cnn3ccccc23)CC1
Input: Lower value of pKi belongs to which: 1 or 2 ? Indicate which entry you chose by stating its label.
Output: 1

---

species: Homo sapiens; assay: Selectivity for human dopamine D4.4 receptor over human dopamine D2L receptor
RECORDED METRIC: Ratio Ki

# count of solved cases: 2
FCCOc1ccc(N2CCN(Cc3cc4ccccn4n3)CC2)cc1    2310
FCCOc1ccccc1N1CCN(Cc2cc3ccccn3n2)CC1    35

[1] Fc1cccc(N2CCN(Cc3cc4ccccn4n3)CC2)n1
[2] Fc1cccc(N2CCN(Cc3cnn4ccccc34)CC2)n1
[3] Clc1ccc(N2CCN(Cc3cc4ccccn4n3)CC2)cc1
[4] FCCOc1ccc(N2CCN(Cc3cnn4ccccc34)CC2)cc1
Input: Number of molecules to sort: 4. Sort criterion: Ratio Ki, ascending. Please list the labels according to the requested order.
Output: 2, 1, 3, 4

---

test: Lipophilicity, log D at pH 7.4; format: physicochemical; conditions: buffer
RECORDED METRIC: logD

[18F]c1cccc(N2CCN(Cc3cnn4ccccc34)CC2)n1    1.98
[18F]CCOc1ccc(N2CCN(Cc3cc4ccccn4n3)CC2)cc1    1.99
[18F]CCOc1ccccc1N1CCN(Cc2cnn3ccccc23)CC1    2.15
[18F]c1cccc(N2CCN(Cc3cc4ccccn4n3)CC2)n1    1.78
[18F]CCOc1ccc(N2CCN(Cc3cnn4ccccc34)CC2)cc1    2.12

---

Readings of Efficacy for the listed compounds
assay: Agonist activity at rat dopamine D4.2 receptor expressed in CHO10001A cells assessed as incorporation of [3H]thymidine relative to quinpirole; type: functional
Give the number; % is assumed, so skip it.

FCCOc1ccc(N2CCN(Cc3cnn4ccccc34)CC2)cc1    -41
FCCOc1ccccc1N1CCN(Cc2cnn3ccccc23)CC1    71
FCCOc1ccc(N2CCN(Cc3cc4ccccn4n3)CC2)cc1    -37
Clc1ccc(N2CCN(Cc3cnn4ccccc34)CC2)cc1    26

Input: Reported Efficacy for FCCOc1ccccc1N1CCN(Cc2cc3ccccn3n2)CC1 : what is it?
Output: 49

---

experiment: Displacement of [3H]8-OH-DPAT from 5HT1A receptor in pig cortical membranes; assay type: cell membranes, Sus scrofa
RECORDED METRIC: Ki (nM)

Illustrative cases are given below, each with its answer.
FCCOc1ccccc1N1CCN(Cc2cnn3ccccc23)CC1    120
Clc1ccc(N2CCN(Cc3cnn4ccccc34)CC2)cc1    1400
FCCOc1ccc(N2CCN(Cc3cnn4ccccc34)CC2)cc1    13000

[A] Fc1cccc(N2CCN(Cc3cnn4ccccc34)CC2)n1
[B] Oc1ccccc1N1CCN(Cc2cnn3ccccc23)CC1
[C] Brc1cccc(N2CCN(Cc3cnn4ccccc34)CC2)n1
Input: Give the ascending ranking of the items by reported Ki. Arrange the labels as the request states and list them.
Output: C, A, B
(C: 120 nM, A: 290 nM, B: 680 nM)

---

target: UniProt:P35462
Sequence (P35462 whole entry): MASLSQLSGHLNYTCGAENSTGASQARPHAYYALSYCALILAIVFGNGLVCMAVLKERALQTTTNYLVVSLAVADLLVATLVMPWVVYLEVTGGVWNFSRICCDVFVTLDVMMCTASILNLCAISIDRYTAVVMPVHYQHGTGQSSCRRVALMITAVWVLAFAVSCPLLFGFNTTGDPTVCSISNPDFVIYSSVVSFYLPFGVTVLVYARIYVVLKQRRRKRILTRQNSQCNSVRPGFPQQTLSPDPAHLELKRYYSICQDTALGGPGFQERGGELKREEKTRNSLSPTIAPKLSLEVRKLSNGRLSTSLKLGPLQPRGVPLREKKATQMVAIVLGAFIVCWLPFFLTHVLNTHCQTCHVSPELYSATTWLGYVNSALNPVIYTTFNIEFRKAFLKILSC
RECORDED METRIC: Ki (nM)

Sample records with Ki:
Oc1ccccc1N1CCN(Cc2cnn3ccccc23)CC1    2200
Fc1cccc(N2CCN(Cc3cc4ccccn4n3)CC2)n1    3400
Brc1cccc(N2CCN(Cc3cc4ccccn4n3)CC2)n1    930

[a] Fc1cccc(N2CCN(Cc3cnn4ccccc34)CC2)n1
[b] Oc1ccc(N2CCN(Cc3cnn4ccccc34)CC2)cc1
Input: Please compare: a and b . Report which one has the smaller Ki value. Answer = label.
Output: a
(a: 590 nM, b: 3400 nM)

---

experiment: Displacement of [3H]spiperone from cloned human dopamine D4.4 receptor expressed in CHO cells; format: cell-based
RECORDED METRIC: Ki (nM)
Entry rule: numbers only, all in nM.

// known answers, use as guide
Brc1cccc(N2CCN(Cc3cc4ccccn4n3)CC2)n1    7.9
FCCOc1ccc(N2CCN(Cc3cnn4ccccc34)CC2)cc1    28
FCCOc1ccccc1N1CCN(Cc2cc3ccccn3n2)CC1    1.3
Fc1cccc(N2CCN(Cc3cc4ccccn4n3)CC2)n1    24
Clc1ccc(N2CCN(Cc3cc4ccccn4n3)CC2)cc1    2.2

Continue with the next compound.
Input: What value of measured Ki is listed for Oc1ccccc1N1CCN(Cc2cnn3ccccc23)CC1 ?
Output: 44

---

molecular target: D(2) dopamine receptor (Homo sapiens, UniProt P14416); assay: Displacement of [3H]spiperone from cloned human dopamine D2L receptor expressed in CHO cells; type: cell-based
Sequence (P14416 whole entry): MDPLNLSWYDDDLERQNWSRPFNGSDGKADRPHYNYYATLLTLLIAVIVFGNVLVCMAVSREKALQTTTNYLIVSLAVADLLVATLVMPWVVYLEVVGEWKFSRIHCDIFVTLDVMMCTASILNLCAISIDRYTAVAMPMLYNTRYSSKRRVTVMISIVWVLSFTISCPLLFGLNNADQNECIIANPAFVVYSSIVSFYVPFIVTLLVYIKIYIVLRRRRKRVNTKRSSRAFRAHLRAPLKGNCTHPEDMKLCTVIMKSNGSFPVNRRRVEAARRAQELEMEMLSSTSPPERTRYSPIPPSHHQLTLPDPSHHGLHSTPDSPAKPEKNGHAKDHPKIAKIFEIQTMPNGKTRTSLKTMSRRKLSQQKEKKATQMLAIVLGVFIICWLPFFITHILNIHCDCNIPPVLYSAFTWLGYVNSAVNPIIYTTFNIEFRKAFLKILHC
RECORDED METRIC: Ki (nM)

Consider the reported Ki for these molecules:
Oc1ccc(N2CCN(Cc3cnn4ccccc34)CC2)cc1    6100
FCCOc1ccc(N2CCN(Cc3cnn4ccccc34)CC2)cc1    66000
Fc1cccc(N2CCN(Cc3cnn4ccccc34)CC2)n1    330
FCCOc1ccccc1N1CCN(Cc2cc3ccccn3n2)CC1    46
FCCOc1ccc(N2CCN(Cc3cc4ccccn4n3)CC2)cc1    30000

[I] FCCOc1ccccc1N1CCN(Cc2cnn3ccccc23)CC1
[II] Fc1cccc(N2CCN(Cc3cc4ccccn4n3)CC2)n1
Input: From the items above, decide which of I and II has the lower Ki reading. Reply briefly: the label of your chosen item.
Output: I

[1] Brc1cccc(N2CCN(Cc3cc4ccccn4n3)CC2)n1
[2] Brc1cccc(N2CCN(Cc3cnn4ccccc34)CC2)n1
[3] Oc1ccccc1N1CCN(Cc2cnn3ccccc23)CC1
Input: Highest Ki first, then in falling order down to the smallest. I would appreciate it if you listed the labels in the requested order.
Output: 3, 1, 2
